- subject.of.test: Genome polyprotein (Dengue virus type 2 (strain 16681-PDK53)) (UniProt P29991)
- procedure.text: flavivirus cap methylation enzyme inhibition – biochemical, confirmation dose response, primary screen (AID 588689)
- condition.label: Dengue-2 NS5 methyltransferase capping enzyme assay, at 25 µM, hits give high values
Out of some 340,000 compounds screened, about 1,000 (0.29%) were called active. Only a sample is shown. Results with a measured potency or affinity are listed apart.
In this section, each of the compounds is paired with its reported inhibition.
Express it in %; write the number only.

q: Kindly indicate its recorded inhibition. Item: `CCCCCC(=O)Nc1cc(S(=O)(=O)N2CCCCC2)ccc1N1CCCCC1`
a: -6.48

q: Name the recorded inhibition of the compound listed here: `CCc1nnc(NS(=O)(=O)c2ccc(NC(=O)/C=C/c3ccc(F)cc3)cc2)s1`
a: 3.59

q: Read the entry `Cc1cccc(NCc2cc(Cl)cc(Cl)c2O)n1` and write its reported inhibition.
a: -2.76

q: Consider the compound `Oc1c(Cl)cc(Cl)cc1CNc1nc2ccccc2[nH]1` and give its recorded inhibition.
a: -17.7

q: Give recorded inhibition. COc1ccc(/C(O)=C2\C(=O)C(=O)N(CC3CCCO3)C2c2cc(OC)ccc2OC)cc1 (configuration not stated)
a: -3.45

q: Report measured inhibition; entry is `C/C(=N\NS(=O)(=O)c1ccccc1)c1cccc(NC(=O)c2cccc(Cl)c2)c1`
a: -5.93

q: // Input: `CCS(=O)(=O)c1ccc(O)c(NC(=O)CCCC(=O)O)c1` . Output its inhibition only.
a: 12.2

q: Tell me measured inhibition for `COc1cc2c3c(c1)c(C1=NC(=S)NC1=O)c(O)n3C(C)(C)C=C2C` please.
a: 5.22

q: Specify measured inhibition for `Cc1ccc2c(c1)c(C1=NC(=S)NC1=O)c(O)n2C` .
a: -5.15

q: Give the value of inhibition reported for the following: Cc1ccc(S(=O)(=O)N2CCOCC2)cc1C(=O)NC1CCCC(C)C1C (configuration not stated)
a: 1.47

q: Provide only the value of recorded inhibition for `Cc1ccc(CN2[C@@H]3c4ccccc4C[C@@H]3OCCS2(=O)=O)cc1`
a: -4.81

q: Please report the measured inhibition for `CC1=CC(=O)C=C/C1=C(/c1ccc(O)cc1C)c1ccccc1S(=O)(=O)O`
a: -1.47

q: Identify measured inhibition corresponding to `NC(=O)CSc1nnc(-c2cccs2)n1-c1ccccc1`
a: -6.45

q: Tell us which inhibition value is on record for `c1coc(Cn2c(-c3ccco3)nc3ccccc32)c1`
a: -8.81

q: Given CC1(NC(=O)N2CCOCC2)CCS(=O)(=O)C1 (configuration not stated) , respond with its inhibition.
a: 0

q: Return inhibition for the following compound: `CCc1nnc(NS(=O)(=O)c2ccc(NC(=S)NC(=O)/C=C/c3ccc([N+](=O)[O-])cc3)cc2)s1`
a: 9.83

q: # return recorded inhibition for entry `CCn1c(-c2ccco2)nc2ccccc21`
a: -5.14

q: Answer with the recorded inhibition of `COc1ccc(NC(=O)Cc2c(C(=O)O)n(C)c3ccccc23)cc1OC` only.
a: -17.2

q: Tell me its inhibition given `O=C(NC1CC1)C1=C[C@@H](c2csc3ccccc23)C[C@@H](OCc2ccc(CO)cc2)O1` as the entry.
a: -6.54

q: Could you please provide reported inhibition for `N#C/C(=C\c1ccc([N+](=O)[O-])cc1)C(=O)Nc1ccccc1O` ? Thanks!
a: 8.94

q: Using known records, supply inhibition for `O=C(O)c1ccc(-c2ccco2)n1Cc1ccccc1`
a: 4.75

q: State, in one line, measured inhibition of `CCc1nnc(NS(=O)(=O)c2ccc(NC(=S)NC(=O)/C=C/c3ccc(OC)cc3)cc2)s1`
a: -1.6
